Test system: human embryonic kidney cell line HEK293 (ATCC CRL-1573)
Test name: in vitro
Assay type: cell-based
Assay conditions: human, 20 h
Property measured: CC50

IN: # returns recorded CC50 (system: human embryonic kidney cell line HEK293 (ATCC CRL-1573)) for CC(=O)O[C@H]1C[C@@]2(C)[C@@H](C[C@@H](O)[C@H]3[C@@]4(C)CC[C@@H](O)[C@@H](C)[C@@H]4CC[C@@]32C)/C1=C(\CCC=C(C)C)C(=O)O [Fusidic acid]
OUT: >32 >32 µg/mL

IN: # returns recorded CC50 (system: human embryonic kidney cell line HEK293 (ATCC CRL-1573)) for COC(=O)/C(CCC=C(C)C)=C1\[C@@H](OC(C)=O)C[C@@]2(C)[C@@H]1C[C@@H](O)[C@@H]1[C@@]3(C)CC[C@H](NCCCNCCCCN)[C@@H](C)C3CC[C@@]12C (some centres unmarked) [Compound 20]
OUT: 14.9 µg/mL

IN: # returns recorded CC50 (system: human embryonic kidney cell line HEK293 (ATCC CRL-1573)) for CC(=O)O[C@H]1C[C@@]2(C)[C@@H](C[C@@H](O)[C@H]3[C@@]4(C)CC[C@H](NCCCNCCCCN)[C@@H](C)[C@@H]4CC[C@@]32C)/C1=C(\CCC=C(C)C)C(=O)O [Compound 19]
OUT: >32 >32 µg/mL

IN: # returns recorded CC50 (system: human embryonic kidney cell line HEK293 (ATCC CRL-1573)) for COC(=O)/C(CCC=C(C)C)=C1\[C@@H](OC(C)=O)C[C@@]2(C)[C@@H]1C[C@@H](O)[C@@H]1[C@@]3(C)CC[C@H](NC(=O)c4cnccn4)[C@@H](C)C3CC[C@@]12C (some centres unmarked) [Compound 4]
OUT: > 32 µg/mL

Below: the item to evaluate.
IN: # returns recorded CC50 (system: human embryonic kidney cell line HEK293 (ATCC CRL-1573)) for CC(=O)O[C@H]1C[C@@]2(C)[C@@H](CC(=O)[C@H]3[C@@]4(C)CCC(=O)[C@@H](C)[C@@H]4CC[C@@]32C)/C1=C(\CCC=C(C)C)C(=O)O [Compound 1]
OUT: >32 >32 µg/mL

----------
Listed compounds paired with reported CC50 at 20 h
Test name: in vitro
Assay type: cell-based, human
Assay conditions: human, CC50
Expressed in µg/mL, but write only the number.

IN: Using the record for CC(=O)O[C@H]1C[C@@]2(C)[C@@H](C[C@@H](O)[C@H]3[C@@]4(C)CC[C@H](NCCCNCCCCNCCCN)[C@@H](C)[C@@H]4CC[C@@]32C)/C1=C(\CCC=C(C)C)C(=O)O , report its CC50 at 20 h.
OUT: 24.2

New cases:
IN: Using the record for CCCCN[C@H]1CC[C@@]2(C)[C@@H](CC[C@@]3(C)[C@H]2[C@H](O)C[C@H]2/C(=C(\CCC=C(C)C)C(=O)OC)[C@@H](OC(C)=O)C[C@@]23C)[C@@H]1C , report its CC50 at 20 h.
OUT: 26

IN: Using the record for COC(=O)/C(CCC=C(C)C)=C1\[C@@H](OC(C)=O)C[C@@]2(C)[C@@H]1C[C@@H](O)[C@@H]1[C@@]3(C)CC[C@H](NCCCNCCCCNCCCN)[C@@H](C)C3CC[C@@]12C (stereo partly shown) , report its CC50 at 20 h.
OUT: 18.8
